molecular target: rat TAAR1 (Rattus norvegicus (Rat), UniProt Q923Y9); experiment: Radioligand binding assay on rat TAAR1; settings: rat TAAR1, HEK-293 membranes, second value of cell mouse/rat; read-out: Ki (μM) rat
Sequence (Q923Y9 whole entry): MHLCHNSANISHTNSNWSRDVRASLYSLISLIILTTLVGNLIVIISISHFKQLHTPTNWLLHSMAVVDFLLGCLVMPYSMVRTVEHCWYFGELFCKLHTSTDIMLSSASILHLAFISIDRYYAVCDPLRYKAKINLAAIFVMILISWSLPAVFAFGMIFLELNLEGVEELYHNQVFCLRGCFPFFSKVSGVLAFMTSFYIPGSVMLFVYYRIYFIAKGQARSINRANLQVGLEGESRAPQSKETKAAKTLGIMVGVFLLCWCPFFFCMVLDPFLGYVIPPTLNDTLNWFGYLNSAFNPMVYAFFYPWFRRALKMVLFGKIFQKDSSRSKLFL
Where a name gives a salt, the structure may show the parent alone.
measured quantity: Ki (µM)
Numbers only, in µM.

Hey, quick one: what's Ki for each of these?
1. Cc1nc(C(=O)Nc2ccc(C3CNCCO3)cc2)cs1 (racemic) [Example 217, hydrochloride]
2. O=C(Nc1ccc(C2CCNC2)cc1)OCCCc1ccc(Cl)cc1 (racemic) [Example 128]
3. O=C(Nc1ccc(C2CNCCO2)cc1)c1coc(-c2ccccc2)n1 (racemic) [Example 249, hydrochloride]

0.0941
0.0003
0.0024

List the reported Ki of each molecule below.
1. O=C(Nc1ccc(C2CCNC2)cc1)Nc1cccc(Cl)c1 (racemic) [Example 8, hydrochloride]
2. O=C(Nc1ccc(C2CCNC2)cc1)Nc1ccc(Cl)c(Cl)c1 (racemic) [Example 3, hydrochloride]
3. O=C(Nc1ccc(C2CCNC2)cc1)c1nc2ccccc2[nH]1 (racemic) [Example 76, hydrochloride]
4. O=C(Nc1ccc([C@@H]2CNCCO2)cc1)c1ccc(Cl)cc1F [Example 229, hydrochloride]
5. CN1CCN(c2ccc(NC(=O)Nc3ccc(Cl)c(Cl)c3)cc2)CC1 [Example 2]

[0.0044, 0.0016, 0.296, 0.0019, 0.001]

Each molecule below has a reported value. Please supply its Ki.
1. O=C(Nc1ccc(C2CCNC2)cc1)c1cnc(Cl)cn1 (racemic) [Example 163, hydrochloride]
2. CC(OC(=O)Nc1ccc(C2CCNC2)cc1)c1ccc(Cl)cc1 (racemic) [Example 127]

1: 0.0121; 2: 0.002

Okay, here is my list. What is Ki for each of these?
1. CCCc1ccc(C(=O)Nc2ccc(C3CCNC3)cc2)cc1 (racemic) [Example 53, hydrochloride]
2. O=C(Cc1ccc(Cl)cc1)Nc1ccc(C2CCNC2)cc1 (racemic) [Example 17, hydrochloride]
3. O=C(Nc1ccc([C@@H]2CCCNC2)cc1)c1cccc(Cl)c1 [Example 153, hydrochloride]
4. O=C(Nc1ccc([C@H]2CCCNC2)cc1)c1cnc(Cl)cn1 [Example 239, hydrochloride]

0.0053
0.0363
0.0005
0.0085

// each molecule listed below needs its Ki
1. O=C(Nc1ccc(C2CCNC2)cc1)c1nccc2ccsc12 (racemic) [Example 93, hydrochloride]
2. C[C@H]1CNC[C@H](c2ccc(NC(=O)c3cccc(Cl)c3)cc2)O1 [Example 309, hydrochloride]
3. COC(=O)c1ccc(Oc2ccc(C(=O)Nc3ccc(C4CNCCO4)cc3)cc2)cc1Cl (racemic) [Example 213, hydrochloride]
4. O=C(Cc1ccc(Cl)cc1)Nc1ccc(C2CCCNC2)cc1 (racemic) [Example 102, hydrochloride]

1. 0.173
2. 0.0023
3. 0.001
4. 0.0894

Answer for every listed entry: what is its Ki? The entries follow.
1. Cc1cccc(C(=O)Nc2ccc([C@@H]3CCCNC3)cc2)c1 [Example 253]
2. O=C(Nc1ccc(CCC2CCCNC2)cc1)c1ncccc1F (racemic) [Example 134, hydrochloride]
3. O=C(Nc1ccc([C@@H]2CCCNC2)cc1)c1ccc(Cl)cc1 [Example 112]
4. O=C(Nc1ccc(CCC2CCCNC2)cc1)Nc1ccc(Cl)cn1 (racemic) [Example 115, hydrochloride]

[0.0035, 0.106, 0.0018, 0.0118]

Go through the items and report each one's Ki.
1. O=C(Nc1ccc(C2CCCCN2)cc1)c1ccc(Cl)cc1 (racemic) [Example 159, hydrochloride]
2. O=C(Nc1ccc(CCC2CCNC2)cc1)c1ncc(F)cc1F (racemic) [Example 133, hydrochloride]
3. O=C(Nc1ccc(C2CNCCO2)cc1)c1cnc(Cl)c(Cl)c1 (racemic) [Example 219, hydrochloride]
4. N#Cc1ccc(C(=O)Nc2ccc(C3CCNC3)cc2)nc1 (racemic) [Example 165, hydrochloride]
5. CC(C(=O)Nc1ccc(C2CCCNC2)cc1)c1ccc(Cl)cc1 (racemic) [Example 103]
6. CC1(c2ccc(NC(=O)c3ccccc3)cc2)CCNC1 (racemic) [Example 41]
7. COc1ccc(C(=O)Nc2ccc(C3CCNC3)cc2)c(OC)n1 (racemic) [Example 95]
8. O=C(Nc1ccc(C2CCNC2)cc1)c1cccc(Cl)c1 (racemic) [Example 20, hydrochloride]

[0.63, 0.0174, 0.0031, 0.0411, 0.0646, 2.98, 0.322, 0.0077]

I have 2 molecules here; please give me Ki for each one.
1. Cc1ccc(CNC(=O)Nc2ccc(C3CNCCO3)cc2)cc1 (racemic) [Example 306, hydrochloride]
2. O=C(Nc1ccc(C2CCNC2)cc1)Nc1ccc(C(F)(F)F)cc1 (racemic) [Example 27, hydrochloride]

1: 0.0038; 2: 0.0015

###

target: rat TAAR1 (Rattus norvegicus (Rat)); assay: Radioligand binding assay on rat TAAR1
pKi: −log10 of the molar value. Where a name gives a salt, the structure may show the parent alone.
Output Criterion met for pKi not less than 8; output Criterion not met otherwise.

Use the examples below as a reference point.
1) O=C(Nc1ccc(C(=O)C2CCNC2)cc1)c1ccc(Cl)cc1 (racemic) [Example 136, hydrochloride]
Criterion met
2) CN(C(=O)Oc1ccccc1)c1ccc(C2CCNC2)cc1 (racemic)
Criterion not met
3) O=C(Nc1ccc(C2CCNC2)cc1)Oc1ccc(Cl)cc1 (racemic) [Example 23, hydrochloride]
Criterion met

Could you now consider this next compound?
For this compound, is measured pKi 8 or higher? O=C(Nc1ccc(C2CCNC2)cc1)Oc1ccccc1 (racemic) [Example 11, hydrochloride] Criterion not met

###

Would you mind telling me the reported log10 Ki of each entry?
biological target: rat TAAR1 (Rattus norvegicus (Rat)); test: Radioligand binding assay on rat TAAR1; conditions: rat TAAR1, HEK-293 membranes, second value of cell mouse/rat; read-out: Ki (μM) rat
Where a name gives a salt, the structure may show the parent alone.
Give log10 of Ki, with Ki taken in µM.

1. O=C(Nc1ccc(C2CCCNC2)cc1)c1ccc(Cl)nc1 (racemic) [Example 74, hydrochloride]
-1.17
2. O=C(Nc1ccc(C2CNCCO2)cc1)NC1CCCCC1 (racemic) [Example 307, hydrochloride]
-1.52
3. O=C(Nc1ccc(C2CNCCO2)cc1)c1ccc(OCC2CC2)cc1 (racemic) [Example 214, hydrochloride]
-2.80
4. CSc1ccc(C(=O)Nc2ccc([C@@H]3CCCNC3)cc2)cc1 [Example 236, hydrochloride]
-2.85
5. O=C(Nc1ccc(C2CCNC2)cc1)OC(c1ccc(Cl)cc1)C(F)(F)F (racemic)
-1.77
6. O=C(Nc1ccc(Cl)cc1)Nc1ccc(C2CNCCO2)cc1 (racemic) [Example 292, hydrochloride]
-3.00

Would you mind giving log10 Ki for every compound in the list below?
1. O=C(NCc1ccc([C@@H]2CNCCO2)cc1)c1ccc(OCC(F)(F)F)nc1 [Example 316, hydrochloride]
2. CCc1cnc(C(=O)Nc2ccc([C@@H]3CCCNC3)cc2)cn1 [Example 274, hydrochloride]

1: -1.92; 2: -1.76

###

I'd appreciate it if you could supply Ki values for the items below.
biological target: mouse TAAR1 (Mus musculus (Mouse), UniProt Q923Y8); assay: Radioligand binding assay on mouse TAAR1; conditions: read-out: Ki (μM) mouse
Sequence (Q923Y8 whole entry): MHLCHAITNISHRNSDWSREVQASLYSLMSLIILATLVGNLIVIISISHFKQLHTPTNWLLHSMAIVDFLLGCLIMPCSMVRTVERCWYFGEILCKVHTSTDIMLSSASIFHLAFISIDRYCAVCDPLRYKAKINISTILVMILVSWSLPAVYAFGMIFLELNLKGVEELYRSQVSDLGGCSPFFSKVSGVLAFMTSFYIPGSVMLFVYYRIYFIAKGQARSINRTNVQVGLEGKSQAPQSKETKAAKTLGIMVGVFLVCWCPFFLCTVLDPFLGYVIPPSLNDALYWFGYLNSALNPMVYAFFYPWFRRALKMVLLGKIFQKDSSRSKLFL
Where a name gives a salt, the structure may show the parent alone.
Numbers only, in µM.

Field: example entries. Status: answers known.
1) O=C(Nc1ccc(C2CNCCO2)cc1)c1csc(-c2cnccn2)n1 (racemic) [Example 288, hydrochloride]
0.0278
2) Cc1cc(C(=O)Nc2ccc([C@H]3CNCCO3)cc2)cc(Cl)n1 [Example 286, hydrochloride]
0.0222
3) O=C(COc1ccc(Cl)cc1)Nc1ccc([C@@H]2CCCNC2)cc1 [Example 235, hydrochloride]
0.0334
4) Cc1cc(C(=O)Nc2ccc(C3CNCCO3)cc2)cc(Cl)n1 (racemic) [Example 273, hydrochloride]
0.0343
5) O=C(Nc1ccc(C2CNCCO2)cc1)c1ccc(OCC2CC2)cc1 (racemic) [Example 214, hydrochloride]
0.0057

Items follow; give Ki for each.
1. O=C(Nc1ccc(C2CNCCO2)cc1)c1cc(Cl)nc(Cl)c1 (racemic) [Example 221, hydrochloride]
2. C[C@H]1CNC[C@H](c2ccc(NC(=O)c3cccc(Cl)c3)cc2)O1 [Example 309, hydrochloride]

1. 0.005
2. 0.116

###

For each record, write down the corresponding Ki.
molecular target: mouse TAAR1 (Mus musculus (Mouse)); assay: Radioligand binding assay on mouse TAAR1; details: mouse TAAR1, HEK-293 membranes, first value of cell mouse/rat; read-out: Ki (μM) mouse
Where a name gives a salt, the structure may show the parent alone.
Please state the number and follow it with the unit.

Solved cases (5 shown):
1) O=C(Nc1ccc(C2CNCCO2)cc1)c1ccccc1 (racemic) [Example 188, hydrochloride]
0.138 µM
2) CCOc1ccc(C(=O)Nc2ccc(C3CNCCO3)cc2)cc1 (racemic) [Example 197, hydrochloride]
0.0177 µM
3) N#Cc1cccc(CC(=O)Nc2ccc(C3CCNC3)cc2)c1 (racemic)
0.137 µM
4) Cc1ccc(C(=O)Nc2ccc([C@@H]3CNCCO3)cc2)cc1 [Example 195, hydrochloride]
0.0135 µM
5) O=C(Nc1ccc(CCC2CCCN2)cc1)c1ccc(F)cn1 (racemic) [Example 166, hydrochloride]
0.394 µM

Provide Ki values for the following items, in order.
1. O=C(Nc1ccc([C@@H]2CNC[C@@H]2F)cc1)c1ccc(Cl)cc1 (racemic) [Example 69, hydrochloride]
2. O=C(Nc1ccc(C2CNCCO2)cc1)c1ccc(OCc2ccccc2)cc1 (racemic) [Example 192, hydrochloride]

1: 0.0048 µM; 2: 0.0052 µM

Report Ki for O=C(Nc1ccc(Cl)cc1)Nc1ccc(C2CCNC2)cc1 (racemic) [Example 5, hydrochloride] please. 0.0015 µM
